Ref: a melting point compilation (Tetko et al.)

Endpoint: melting point

Answered examples (4):
// `O=C(O)C=CC1CC1` : melting point value = 68 to 70 °C

// `CCc1cc2c(=O)n(N)cnc2s1` : melting point value = 137 to 139 °C

// `Nc1nc2ccc(C(=O)O)cc2o1` : melting point value = 337 to 339 °C

// `COc1cc(NC(=O)NN)c(OC)cc1Cl` : melting point value = 168 to 170 °C

***
// `Cc1nc(N)sc1Cc1cccc(Cl)c1` : melting point value = 74 to 76 °C

// `Cc1cc2cc(F)ccc2[nH]1` : melting point value = 98 to 101 °C

// O=C(O)c1ccc(Cl)c(S(=O)(=O)NCC2CCCO2)c1 (centres undefined) : melting point value = 207 to 209 °C

// `Nc1nc(-c2ccccn2)cs1` : melting point value = 135 to 137 °C

// `Cc1nn(-c2cccc(Cl)c2)c2sc(C(=O)O)cc12` : melting point value = 268 to 270 °C

// `N#CCc1nc(N)nc(N)n1` : melting point value = 280 to 282 °C

// `Cc1c(C(=O)O)sc2nc3n(c(=O)c12)CCC3` : melting point value = 281 to 283 °C

// `Cc1c[nH]c(=O)n1-c1ccc(Cl)cc1` : melting point value = 185 to 187 °C

// `Cc1ccc(S(=O)(=O)NCCCC(=O)O)cc1` : melting point value = 138 to 140 °C

// `CCCCCS(=O)(=O)CC(=O)O` : melting point value = 69 to 71 °C

---

Endpoint: melting point

Answered examples (3):
// `Nc1ccc(F)c(NC(=O)c2ccsc2)c1` : melting point value = 118 to 120 °C

// `Cc1[nH]c(N)c(C#N)c1C` : melting point value = 149 to 151 °C

// `CCc1cccc(C)c1Nc1nnc(S)s1` : melting point value = 155 to 157 °C

***
// `NCc1cccc(N2CCOC2=O)c1` : melting point value = 93 to 95 °C

// `Cc1c(C(=O)O)c(=O)oc2cc(F)ccc12` : melting point value = 169 to 171 °C

// `COc1cc(F)cc(C(=O)O)c1N` : melting point value = 211 to 213 °C

// `Fc1ccc(-c2cncc(Cl)n2)cc1` : melting point value = 95 to 97 °C

---

Endpoint: melting point

// `CCOC(=O)c1sc2nc(CN(C)C)nc(Cl)c2c1C` : melting point value = 114 to 116 °C

// `Clc1ccc(C(Cl)c2ccc(Cl)cc2)cc1` : melting point value = 57 to 59 °C

// CC(Cn1cncn1)C(N)=S (centres undefined) : melting point value = 169 to 171 °C

// `Cc1cc(C)c(C)c(S(=O)(=O)N2CCC(C(=O)O)CC2)c1C` : melting point value = 107 to 109 °C

// `S=C1NCCO1` : melting point value = 95 to 97 °C

***
// `N#Cc1cc2ccccn2c1` : melting point value = 68 to 70 °C

// `Nc1nc2cc(F)c(F)cc2s1` : melting point value = 171 to 173 °C

// `Cc1ccc(C=O)nc1` : melting point value = 39 to 41 °C

// `O=C(O)c1ccc(-c2cccc(C(F)(F)F)c2)cc1F` : melting point value = 208 to 210 °C

// `NNC(=O)c1ccc(COc2cccc3cccnc23)cc1` : melting point value = 135 to 137 °C
